biological target: UniProtKB P18901; assay: Inhibition of [3H]-SCH- 23390 binding to dopamine receptor D1 rat striatal membrane
Sequence (P18901 whole entry): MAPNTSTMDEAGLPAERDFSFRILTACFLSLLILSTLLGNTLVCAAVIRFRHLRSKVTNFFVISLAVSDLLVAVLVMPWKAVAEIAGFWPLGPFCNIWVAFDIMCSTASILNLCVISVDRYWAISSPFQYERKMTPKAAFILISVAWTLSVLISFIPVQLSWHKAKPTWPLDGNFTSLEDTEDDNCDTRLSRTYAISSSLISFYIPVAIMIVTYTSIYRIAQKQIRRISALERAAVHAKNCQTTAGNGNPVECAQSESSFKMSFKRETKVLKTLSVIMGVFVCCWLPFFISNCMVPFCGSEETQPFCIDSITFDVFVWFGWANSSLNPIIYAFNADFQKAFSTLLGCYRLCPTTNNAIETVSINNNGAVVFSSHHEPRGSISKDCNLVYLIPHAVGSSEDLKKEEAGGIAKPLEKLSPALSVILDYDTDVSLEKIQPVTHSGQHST
Please provide measured Ki for the entries that follow.
Report the value in nM with no unit label.

I looked up O=C(c1ccc(F)cc1)C1CCN(CCC2Cc3ccccc3C2=O)CC1 (centres undefined) and its Ki for UniProtKB P18901 was 2820

Per the reported UniProtKB P18901 data, O=C(c1ccc(F)cc1)C1CCN(CCC2Cc3cc(F)ccc3C2=O)CC1 (centres undefined) has Ki of 1100

With UniProtKB P18901 as the test system, O=C(c1ccc(F)cc1)C1CCN(CCC2CCCc3ccccc3C2=O)CC1 (centres undefined) showed Ki of 1290

Test item O=C(c1ccc(F)cc1)C1CCN(CCC2CCc3ccccc3C2=O)CC1 (centres undefined) ; UniProtKB P18901; reported Ki was 1550

====

biological target: 5-hydroxytryptamine receptor 2A (Rattus norvegicus)
Sequence (P14842 whole entry): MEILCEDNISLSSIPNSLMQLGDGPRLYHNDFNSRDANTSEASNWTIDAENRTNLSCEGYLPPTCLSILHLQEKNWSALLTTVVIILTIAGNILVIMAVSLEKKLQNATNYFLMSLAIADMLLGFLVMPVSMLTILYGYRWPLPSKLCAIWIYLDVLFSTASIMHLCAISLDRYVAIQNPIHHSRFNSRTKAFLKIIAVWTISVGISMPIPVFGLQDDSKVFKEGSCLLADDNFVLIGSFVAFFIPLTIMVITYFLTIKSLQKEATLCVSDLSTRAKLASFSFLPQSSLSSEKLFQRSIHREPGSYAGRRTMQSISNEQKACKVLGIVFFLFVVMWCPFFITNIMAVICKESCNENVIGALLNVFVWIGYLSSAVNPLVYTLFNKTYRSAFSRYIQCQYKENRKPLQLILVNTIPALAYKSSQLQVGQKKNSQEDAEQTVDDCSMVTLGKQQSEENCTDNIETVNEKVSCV
attribute measured: Ki (nM)
Express it in nM; write the number only.

Per the record, O=C(c1ccc(F)cc1)C1CCN(CCC2Cc3cc(F)ccc3C2=O)CC1 (configuration not stated) has Ki of 3.8

The recorded Ki for O=C(c1ccc(F)cc1)C1CCN(CCC2CCc3ccccc3C2=O)CC1 (configuration not stated) is 7.76

====

biological target: D(2) dopamine receptor (Rattus norvegicus); assay: Inhibition of [3H]-spiperone […] binding to dopamine receptor D2 rat striatal membrane
Sequence (P61169 whole entry): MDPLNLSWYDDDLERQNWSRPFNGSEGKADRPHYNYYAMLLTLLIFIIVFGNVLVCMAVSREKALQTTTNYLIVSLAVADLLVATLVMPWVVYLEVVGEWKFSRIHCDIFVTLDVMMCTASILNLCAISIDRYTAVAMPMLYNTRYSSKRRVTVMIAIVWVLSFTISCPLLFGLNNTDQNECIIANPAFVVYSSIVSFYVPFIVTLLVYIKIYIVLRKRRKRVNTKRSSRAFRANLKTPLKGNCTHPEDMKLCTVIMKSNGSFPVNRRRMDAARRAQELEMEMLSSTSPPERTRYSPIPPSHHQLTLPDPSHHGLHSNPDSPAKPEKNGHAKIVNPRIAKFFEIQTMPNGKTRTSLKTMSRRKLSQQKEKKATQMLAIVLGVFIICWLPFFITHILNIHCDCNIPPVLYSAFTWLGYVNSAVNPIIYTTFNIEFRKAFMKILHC
attribute measured: Ki (nM)
Output spec: scalar in nM, unitless text.

For reference, reported Ki for O=C(c1ccc(F)cc1)C1CCN(CCC2Cc3cc(F)ccc3C2=O)CC1 (stereo unspecified) stands at 47.9

Hey, just so you know, these numbers are from ChEMBL document CHEMBL1127610.
